Below: a set of entries, each annotated with reported growth AUC normalised to DMSO control.
Tested on: Salmonella enterica typhimurium
protocol_notes: growth AUC normalised to DMSO control (fraction of control); higher = less growth inhibition, active = hit call of the paper
measurement_context: 20 µM
Counter-ions that a name gives are not always drawn.
assay_metric: growth AUC normalised to DMSO control

{"columns": ["compound", "assay_metric", "quantitative_readout"],
 "data": [
  ["CN1[C@@H]2CC[C@H]1C[C@@H](OC1c3ccccc3CCc3ccccc31)C2 [Deptropine citrate]", "growth AUC normalised to DMSO control", 0.993],
  ["C[C@@H]1CC[C@H]2[C@@H](C)C(=O)O[C@@H]3O[C@@]4(C)CC[C@@H]1[C@]32OO4", "growth AUC normalised to DMSO control", 0.988],
  ["COc1ccc(OC)c(C(O)C(C)N)c1 (stereo not drawn) [Methoxamine hydrochloride]", "growth AUC normalised to DMSO control", 1.01]
]}
